The values you see were collected from ChEMBL document CHEMBL5604063.

target: Genome polyprotein (dengue virus type 2, UniProt P29990); type: functional, Thailand/16681/1984
Sequence (P29990 1346-1475 limits assumed): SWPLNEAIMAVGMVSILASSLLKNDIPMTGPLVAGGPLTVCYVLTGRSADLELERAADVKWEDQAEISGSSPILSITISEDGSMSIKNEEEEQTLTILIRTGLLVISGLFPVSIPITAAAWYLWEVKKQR
Sequence (P29990 1476-2093 limits assumed): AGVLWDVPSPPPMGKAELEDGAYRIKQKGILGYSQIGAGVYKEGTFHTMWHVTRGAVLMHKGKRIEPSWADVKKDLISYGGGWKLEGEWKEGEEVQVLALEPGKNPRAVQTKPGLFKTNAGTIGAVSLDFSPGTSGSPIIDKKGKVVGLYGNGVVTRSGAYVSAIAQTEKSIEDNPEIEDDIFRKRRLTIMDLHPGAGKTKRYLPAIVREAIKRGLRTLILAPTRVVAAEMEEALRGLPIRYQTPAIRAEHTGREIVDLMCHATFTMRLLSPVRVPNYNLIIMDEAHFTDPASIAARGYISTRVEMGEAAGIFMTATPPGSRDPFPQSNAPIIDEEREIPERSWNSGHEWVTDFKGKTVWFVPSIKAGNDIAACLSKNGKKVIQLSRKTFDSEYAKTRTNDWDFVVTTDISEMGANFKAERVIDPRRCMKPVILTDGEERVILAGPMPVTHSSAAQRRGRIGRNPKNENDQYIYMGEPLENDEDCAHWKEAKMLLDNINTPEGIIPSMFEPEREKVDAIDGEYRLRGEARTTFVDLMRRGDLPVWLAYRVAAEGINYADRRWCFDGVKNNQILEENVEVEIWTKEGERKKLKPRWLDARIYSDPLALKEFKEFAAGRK
pIC50: −log10 of the molar value.
pIC50 by entry:

Reference set, count: 4
{"smilesData": "O=C(Nc1ccc2c(c1)CNC2)c1ccc2cc[nH]c2c1", "pIC50": "< 4.00"}
{"smilesData": "NC(=O)c1cn(C2CCCC2)nc1NC(=O)c1cccc2c1CC(=O)N2", "pIC50": "< 4.00"}
{"smilesData": "Cc1cc(CN)cc(NC(=O)c2cccc3c2CC(=O)N3)c1", "pIC50": 4.12}
{"smilesData": "O=C(Nc1ccc2c(c1)CNC2)C1CCCCC1", "pIC50": "< 4.00"}

What pIC50 appears in the records for this molecule with Genome polyprotein (dengue virus type 2, UniProt P29990)? `O=C(NC1CCCCC1)c1cc(Cl)ccc1NS(=O)(=O)c1ccc(Oc2ccccc2Cl)cc1`
4.86

What pIC50 appears in the records for this molecule with Genome polyprotein (dengue virus type 2, UniProt P29990)? `Cc1cc(C(=O)Nc2cccc(CN)c2)c2nc(C)n(C)c2n1`
< 4.00

###

IC50 by entry:
target: Genome polyprotein (dengue virus type 2); assay type: functional, Thailand/16681/1984

{"smilesData": "C[C@H](NC(=O)c1cccc2c1CC(=O)N2)c1cc2cnccc2o1", "assayedSystem": "Genome polyprotein (dengue virus type 2)", "IC50": "> 99.5 µM"}

Entry `NC[C@H]1C[C@@H]1NC(=O)c1cc(Cl)cc(NC(=O)OCc2ccccc2)c1` : reported IC50 = ?
> 99.5 µM

Entry `c1cc([C@@H]2C[C@H]2c2ccc3c(c2)CNC3)c2cn[nH]c2c1` : reported IC50 = ?
> 99.5 µM

Entry `O=C(O)c1cc(Cl)ccc1NS(=O)(=O)c1ccc(N[C@H]2CCOC2)nc1` : reported IC50 = ?
> 99.5 µM

Entry `Cn1nc2c(c1NC(=O)c1cc(Cl)cc(NC(=O)OCc3ccccc3)c1)CNCC2` : reported IC50 = ?
60.7 µM

Entry `Cc1c(C(=O)Nc2cc(C3CCOCC3)ccc2F)cc(C2CC2)n1C` : reported IC50 = ?
> 99.5 µM

Entry `NCc1cccc(NC(=O)[C@H](NC(=O)OCc2ccccc2)c2cccc(OCCn3cccn3)c2)c1` : reported IC50 = ?
> 99.5 µM

###

biological target: Genome polyprotein (dengue virus type 2); type: functional, Thailand/16681/1984
observationType: pIC50
# pIC50: negative log10 of molar concentration; output just the value

{"smilesData": "O=C(Nc1ccc2c(c1)CNC2)c1cc(Cl)cc2[nH]c(-c3ccnn3C3CC3)nc12", "pIC50": 4.60}

# context switch: different compound, same pIC50
Entry `NCc1ccc2nc(-c3cc(Cl)cc(NC(=O)OCc4ccccc4)c3)c(CCCO)cc2c1` : reported pIC50 = ?
4.05

###

molecular target: Genome polyprotein (dengue virus type 2, UniProt P29990); format: functional, Thailand/16681/1984
observationType: IC50

Reference set, count: 6
{"smilesData": "O=C(Nc1ccc2c(c1)CNC2)c1cc(F)cc2[nH]ncc12", "IC50": "59.5 µM"}
{"smilesData": "CC(C)(C)c1cc(CN2CCC(c3cscn3)CC2)n[nH]1", "IC50": "> 99.5 µM"}
{"smilesData": "CNC(=O)[C@]1(Nc2ccc3c(c2)CNC3)C(=O)Nc2ccccc21", "IC50": "> 99.5 µM"}
{"smilesData": "Cc1cc(CN)cc(C)c1NS(=O)(=O)c1ccc(Oc2ccccc2Cl)cc1", "IC50": "> 99.5 µM"}
{"smilesData": "O=C(NCCOCC1CC1)[C@H](Nc1ccc2c(c1)CNC2)c1cc(Cl)cc(C2CC2)c1", "IC50": "> 99.5 µM"}
{"smilesData": "NCc1ccc(C[C@H](NC(=O)OCc2ccccc2)C(=O)Nc2cccc(CN)c2)cc1", "IC50": "> 99.5 µM"}

Entry `O=C1Cc2c(cccc2C(=O)Nc2ccc3c(c2)[C@H](O)CCO3)N1` : reported IC50 = ?
> 99.5 µM

Entry `COc1cc(NC(=O)OCc2ccccc2)cc(C(=O)Nc2cccc(CN)c2)c1OC` : reported IC50 = ?
> 99.5 µM

Entry `Cc1ccc(-c2nnn[nH]2)cc1NC(=O)c1cc(Cl)cc(NC(=O)OCc2ccccc2)c1` : reported IC50 = ?
18.4 µM

Entry `CCCN(C)C(=O)c1cc(Cl)ccc1NS(=O)(=O)c1ccc(Oc2ccccc2Cl)cc1` : reported IC50 = ?
27.9 µM

###

target: UniProt P29990; type: functional, Thailand/16681/1984
pIC50: −log10 of the molar value.
observationType: pIC50

Reference set, count: 4
{"smilesData": "CCc1nccn1CC(=O)Nc1ccc2c(c1)CNC2", "pIC50": "< 4.00"}
{"smilesData": "O=C(Nc1ccc2c(c1)CNC2)c1ccc2[nH]cnc2c1", "pIC50": "< 4.00"}
{"smilesData": "O=C(O)CCCc1cc(NC(=O)c2cc(F)cc3[nH]ncc23)cc2c1CNC2", "pIC50": "< 4.00"}
{"smilesData": "O=C(O)c1cc(OC2CCOCC2)c(F)cc1NS(=O)(=O)c1ccc(Oc2ccccc2Cl)cc1", "pIC50": 4.86}

Entry `O=C(NCCC1CC1)[C@H](Nc1ccc2c(c1)CNC2)c1cc(Cl)cc(C2CC2)c1` : reported pIC50 = ?
< 4.00

###

pIC50 by entry:
molecular target: Genome polyprotein (dengue virus type 2); format: functional, Thailand/16681/1984
pIC50: −log10 of the molar value.

Reference set, count: 8
{"smilesData": "Clc1ccc2nc(C3CCOCC3)n(Cc3ccc4c(c3)CNC4)c2c1", "observationType": "pIC50", "reportedMeasurement": "< 4.00"}
{"smilesData": "COCCNC(=O)[C@H](Nc1ccc2c(c1)CNC2)c1cc(Cl)cc(C2CC2)c1", "observationType": "pIC50", "reportedMeasurement": "< 4.00"}
{"smilesData": "O=C(Nc1cc(-c2cccnc2)ccn1)c1cn([C@H]2CCCNC2)nn1", "observationType": "pIC50", "reportedMeasurement": "< 4.00"}
{"smilesData": "COC(=O)CNC(=O)[C@H](Nc1ccc2c(c1)CNC2)c1cc(Cl)cc(C2CC2)c1", "observationType": "pIC50", "reportedMeasurement": "< 4.00"}
{"smilesData": "O=C(Nc1ccc2c(c1)CNC2)c1cc(Cl)cc(C2CC2)c1", "observationType": "pIC50", "reportedMeasurement": "< 4.00"}
{"smilesData": "Clc1cc([C@@H]2C[C@H]2c2cccc(-c3nn[nH]n3)c2)c2cn[nH]c2c1", "observationType": "pIC50", "reportedMeasurement": 4.18}
{"smilesData": "C=CC[C@]1(NC(=O)c2cc(Cl)cc(NC(=O)OCc3ccccc3)c2)CCNC1", "observationType": "pIC50", "reportedMeasurement": "< 4.00"}
{"smilesData": "CN(C(=O)OCc1ccccc1)[C@H](C(=O)Nc1cccc(CN)c1)c1ccc(OCc2ccccc2)cc1", "observationType": "pIC50", "reportedMeasurement": 4.36}

Entry `CCCCCC(=O)N[C@H](C(=O)NCc1cccc(CN)c1)c1ccc(OCc2ccccc2)cc1` : reported pIC50 = ?
4.07

Entry `O=C(O)c1cccc(NC(=O)c2cc(Cl)cc3[nH]ncc23)c1` : reported pIC50 = ?
< 4.00

###

molecular target: Genome polyprotein (dengue virus type 2); type: functional, Thailand/16681/1984
observationType: IC50

Reference set, count: 9
{"smilesData": "N#Cc1ccc(Cl)c(C(=O)Nc2ccc3c(c2)CNC3)c1", "assayedSystem": "Genome polyprotein (dengue virus type 2)", "reportedMeasurement": "> 100 µM"}
{"smilesData": "C=Cc1cc2c(cc1NC(=O)c1cc(F)cc3[nH]ncc13)CNC2", "assayedSystem": "Genome polyprotein (dengue virus type 2)", "reportedMeasurement": "32.8 µM"}
{"smilesData": "O=C(NCC(F)F)[C@H](Nc1ccc2c(c1)CNC2)c1cc(Br)ccc1C1CC1", "assayedSystem": "Genome polyprotein (dengue virus type 2)", "reportedMeasurement": "> 100 µM"}
{"smilesData": "CSc1cc(Cl)cc(C(=O)Nc2cccc(CN)c2)c1", "assayedSystem": "Genome polyprotein (dengue virus type 2)", "reportedMeasurement": "> 100 µM"}
{"smilesData": "CNC(=O)CN1CCC([C@@H](NC(=O)OCc2ccccc2)C(=O)Nc2cccc(CN)c2)CC1", "assayedSystem": "Genome polyprotein (dengue virus type 2)", "reportedMeasurement": "> 100 µM"}
{"smilesData": "O=C(O)C[C@H]1CN(c2ccc(-c3cc(Cl)cc(NC(=O)OCc4ccccc4)c3)cn2)CCO1", "assayedSystem": "Genome polyprotein (dengue virus type 2)", "reportedMeasurement": "22.2 µM"}
{"smilesData": "O=C(Nc1cc(-c2cccnc2)ccn1)c1cc(C2CC2)[nH]n1", "assayedSystem": "Genome polyprotein (dengue virus type 2)", "reportedMeasurement": "> 100 µM"}
{"smilesData": "O=C(Nc1ccc2c(c1)CNC2)N1CC[C@H](Oc2ccc(C3CC3)cn2)C1", "assayedSystem": "Genome polyprotein (dengue virus type 2)", "reportedMeasurement": "> 100 µM"}
{"smilesData": "Fc1cc(CNc2ccc3c(n2)CNC3)c2cn[nH]c2c1", "assayedSystem": "Genome polyprotein (dengue virus type 2)", "reportedMeasurement": "> 100 µM"}

# context switch: different molecule, same IC50
What IC50 appears in the records for this molecule with Genome polyprotein (dengue virus type 2)? `CCOCCCN1Cc2ccc(NC(=O)c3cc(Cl)cc4[nH]ncc34)cc2C1`
> 100 µM
